Just for reference, patent US20190106460A1 is where these values come from.

Study System: Skp2 (UniProt Q13309 1-424, limits assumed)
Sequence (Q13309 whole entry): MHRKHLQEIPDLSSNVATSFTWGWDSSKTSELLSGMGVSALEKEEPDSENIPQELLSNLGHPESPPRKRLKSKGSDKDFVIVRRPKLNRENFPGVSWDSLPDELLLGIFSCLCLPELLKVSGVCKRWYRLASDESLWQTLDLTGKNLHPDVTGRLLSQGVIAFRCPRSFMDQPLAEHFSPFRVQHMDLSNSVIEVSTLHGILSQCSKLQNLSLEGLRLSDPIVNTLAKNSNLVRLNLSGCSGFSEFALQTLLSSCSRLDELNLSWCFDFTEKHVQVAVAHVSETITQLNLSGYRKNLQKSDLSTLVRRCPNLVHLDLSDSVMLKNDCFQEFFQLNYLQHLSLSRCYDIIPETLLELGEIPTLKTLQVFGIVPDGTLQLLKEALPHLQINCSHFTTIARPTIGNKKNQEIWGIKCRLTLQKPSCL
Method: cell-based or functional assay
Starred links: 1 amine or outer side, 2 acyl side, 3 side chain; linkers in the order of their positions; H or OH if unused. Non-standard residues stand in square brackets, D forms with d. *: point of attachment. Phe(4-NO2) = N[C@@H](Cc1ccc([N+](=O)[O-])cc1)C(=O)O; Benzenesulfonyl(4-OMe) = COc1ccc(S(=O)(=O)*)cc1; 3,4‑(MeO)2‑PhSO2 = COc1ccc(S(=O)(=O)*)cc1OC; Phe(3-F) = N[C@@H](Cc1cccc(F)c1)C(=O)O; Suc = O=C(CCC(=O)[*:2])[*:1]; Tos = Cc1ccc(S(=O)(=O)*)cc1; Propionyl = CCC(=O)*

- Binder: "Tos-[dD]DG[Phe(3-F)]WD-NH2 (SMILES Cc1ccc(S(=O)(=O)N[C@H](CC(=O)O)C(=O)N[C@@H](CC(=O)O)C(=O)NCC(=O)N[C@@H](Cc2cccc(F)c2)C(=O)N[C@@H](Cc2c[nH]c3ccccc23)C(=O)N[C@@H](CC(=O)O)C(N)=O)cc1, also called UBP028) [Ts-dDGF(3F)WD-NH2]"
  Units Symbol: "%"
  % Inhibition Skp2 @ (100 µM): 14
- Binder: "Suc-EGY[Phe(4-NO2)]E-NH2 (SMILES NC(=O)[C@H](CCC(=O)O)NC(=O)[C@H](Cc1ccc([N+](=O)[O-])cc1)NC(=O)[C@H](Cc1ccc(O)cc1)NC(=O)CNC(=O)[C@H](CCC(=O)O)NC(=O)CCC(=O)O) [Suc-EGYF(4NO2)E-NH2]"
  Units Symbol: "%"
  % Inhibition Skp2 @ (100 µM): 31
- Binder: "{Benzenesulfonyl(4-OMe)}-DEG[Phe(3-F)]WE-NH2 (SMILES COc1ccc(S(=O)(=O)N[C@@H](CC(=O)O)C(=O)N[C@@H](CCC(=O)O)C(=O)NCC(=O)N[C@@H](Cc2cccc(F)c2)C(=O)N[C@@H](Cc2c[nH]c3ccccc23)C(=O)N[C@@H](CCC(=O)O)C(N)=O)cc1, also called UBP026) [4-(MeO)-PhSO2-DEGF(3F)WE-NH2]"
  Units Symbol: "%"
  % Inhibition Skp2 @ (100 µM): 3
- Binder: "{3,4‑(MeO)2‑PhSO2}-[dD]EG[Phe(3-F)]WE-NH2 (SMILES COc1ccc(S(=O)(=O)N[C@H](CC(=O)O)C(=O)N[C@@H](CCC(=O)O)C(=O)NCC(=O)N[C@@H](Cc2cccc(F)c2)C(=O)N[C@@H](Cc2c[nH]c3ccccc23)C(=O)N[C@@H](CCC(=O)O)C(N)=O)cc1OC, also called UBP029) [3,4-(MeO)2-PhSO2-dEGF(3F)WE-NH2]"
  Units Symbol: "%"
  % Inhibition Skp2 @ (100 µM): 19
- Binder: "Propionyl-[dD]EG[Phe(3-F)]WE-NH2 (also called UBP019) [Et(CO)-dEGF(3F)WE-NH2]"
  Units Symbol: "%"
  % Inhibition Skp2 @ (100 µM): 10
